- Test system: biotinyl-Leu-oxazolone
- assay comment: self-aminoacylation, catalytic enhancement (BLO) (fold over background); higher = more active; k-Seq, kA / k0A0; sequences stand for … in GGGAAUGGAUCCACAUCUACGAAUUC…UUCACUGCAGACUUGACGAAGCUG
Variants at the floor of the assay were thinned out.
metric name: self-aminoacylation
In your answer, state the number alone without any accompanying words.

Exercise: Which self-aminoacylation reading was recorded for the sequence CCCGACUUCAAGCAAUCGGUC [Fam1B.1 aminoacylation ribozyme variant] ?
Solution: 2.85

Exercise: Entry under review: AAGUAUGCUAAUAGUCGAAAG [Fam3.1 aminoacylation ribozyme variant] . Reported self-aminoacylation?
Solution: 1.31

Exercise: Reported self-aminoacylation for AUCCACCUAGGUCAUUGGGUG [Fam2.2 aminoacylation ribozyme variant] : what is it?
Solution: 3.86

Exercise: // query self-aminoacylation value for entry AUUACCCAGGUCAUUGAGUGA [Fam2.1 aminoacylation ribozyme variant]
Solution: 9.04

Exercise: Which self-aminoacylation is reported for this sequence? AAGUUUGCUAAGAGUCGCAAA [Fam3.1 aminoacylation ribozyme variant]
Solution: 0.88

Exercise: For the sequence AUGCACCUAGGUCAUCGGUUG [Fam2.2 aminoacylation ribozyme variant] , what self-aminoacylation is on record?
Solution: 1.28

Exercise: So what does the record say about self-aminoacylation for CUACUUCAAACCGUCGGUCUG [Fam1A.1 aminoacylation ribozyme variant] ?
Solution: 0.71

Exercise: I'd like to know its self-aminoacylation. The sequence in question is UAACUUCAAACAAUCGGUCUG [Fam1A.1 aminoacylation ribozyme variant]
Solution: 2.04

Exercise: Endpoint output: self-aminoacylation of CUACUUCAAACAUUCGGUCUA [Fam1A.1 aminoacylation ribozyme variant] . Value?
Solution: 0.766

Exercise: What value of self-aminoacylation has been recorded for this entry: CUUCUUCAAACAGUCGGUCUG [Fam1A.1 aminoacylation ribozyme variant]
Solution: 0.803

Exercise: # input sequence: CUACUUCAAUCAAUCGGUCUA [Fam1A.1 aminoacylation ribozyme variant] ; wanted: its self-aminoacylation
Solution: 1.02

Exercise: Need self-aminoacylation, item AUUACCCUGGUCUUCCAGUGA [Fam2.1 aminoacylation ribozyme variant]
Solution: 5.94

Exercise: Could you share which self-aminoacylation value was measured for AAGUUUGGUAAUAGUCGCCAG [Fam3.1 aminoacylation ribozyme variant] ?
Solution: 1.27

Exercise: For AAGUUCGCUCAUAGUCGCAAG [Fam3.1 aminoacylation ribozyme variant] , what is its reported self-aminoacylation?
Solution: 1.96

Exercise: So what's the measured self-aminoacylation for this one? AUUACCCUGGUCAUCGAGUGC [Fam2.1 aminoacylation ribozyme variant]
Solution: 10.9

Exercise: Value lookup for self-aminoacylation; key = AUUCACCUAGGCCACCGGGUG [Fam2.2 aminoacylation ribozyme variant]
Solution: 6.51

Exercise: What value of self-aminoacylation has been reported for the following sequence? CCACAGUUCAAGCAGUCGGUC [Fam1B.1 aminoacylation ribozyme variant]
Solution: 1.04

Exercise: // returns reported self-aminoacylation for input AUUACCCGCGUCAUCGAGUGA [Fam2.1 aminoacylation ribozyme variant]
Solution: 4.6

Exercise: What value of measured self-aminoacylation is listed for ACGUUUGCUAAUAGUCGCAAC [Fam3.1 aminoacylation ribozyme variant] ?
Solution: 1.43

Exercise: What does the record list as self-aminoacylation for CCACAGUUCACGCAAUCGGUC [Fam1B.1 aminoacylation ribozyme variant] ?
Solution: 1.73

Exercise: State the recorded self-aminoacylation for this entry: AUUCACCGAGGUCAUGGGGUG [Fam2.2 aminoacylation ribozyme variant]
Solution: 14.7

Exercise: Which self-aminoacylation value belongs to CCACACGUCAAGCAAUCUGUC [Fam1B.1 aminoacylation ribozyme variant] ?
Solution: 0.422

Exercise: I would be grateful if you could share the reported self-aminoacylation for CCACCCUACAAGCAAUCGGUC [Fam1B.1 aminoacylation ribozyme variant] .
Solution: 1.19

Exercise: Looking for the measured self-aminoacylation of CUUACCCUGGUCAUCGAGUGA [Fam2.1 aminoacylation ribozyme variant] , can you help?
Solution: 23.1

Exercise: Consider the sequence shown here: CCACACUUCAAGCAAUCCUUC [Fam1B.1 aminoacylation ribozyme variant] What is its recorded self-aminoacylation?
Solution: 0.44

Exercise: # lookup: self-aminoacylation of UUUCACCUAGGUCAUUGGGUG [Fam2.2 aminoacylation ribozyme variant]
Solution: 2.57

Exercise: What value of self-aminoacylation has been reported for the following sequence? AUUACCCUGGAAAUCGAGUGA [Fam2.1 aminoacylation ribozyme variant]
Solution: 20.8

Exercise: Please look up its self-aminoacylation: AUUACCCCGGUCAGCGAGUGA [Fam2.1 aminoacylation ribozyme variant]
Solution: 4.92

Exercise: Given the entry CCACACUUCAAGAAAUCGGUG [Fam1B.1 aminoacylation ribozyme variant] , report its measured self-aminoacylation.
Solution: 10.6

Exercise: Entry UAGUUUGGUAAUAGUCGCAAG [Fam3.1 aminoacylation ribozyme variant] has what self-aminoacylation?
Solution: 1.81

Exercise: Name the recorded self-aminoacylation for CUGCUUUAAACAAUCGGUCUG [Fam1A.1 aminoacylation ribozyme variant] .
Solution: 0.754

Exercise: Consider the sequence CCACUUCCAACAAUCGGUCUG [Fam1A.1 aminoacylation ribozyme variant] and give its measured self-aminoacylation.
Solution: 1.15

Exercise: May I ask what self-aminoacylation has been recorded for AUUCAUCUAGGUCAUCGGGUU [Fam2.2 aminoacylation ribozyme variant] ?
Solution: 2.81

Exercise: For the sequence shown here, CUACAUCAAACAAUCGGGCUG [Fam1A.1 aminoacylation ribozyme variant] , give the reported self-aminoacylation.
Solution: 0.965

Exercise: Need self-aminoacylation, item AAUCACAUAGGUCAUCGGGUG [Fam2.2 aminoacylation ribozyme variant]
Solution: 7.16
